B1: Pistol ribozyme (parent)
chain: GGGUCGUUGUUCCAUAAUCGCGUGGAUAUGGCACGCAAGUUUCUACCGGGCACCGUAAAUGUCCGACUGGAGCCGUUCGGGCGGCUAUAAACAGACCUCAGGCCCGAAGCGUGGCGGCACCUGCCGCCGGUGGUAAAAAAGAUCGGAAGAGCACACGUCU

# Variants of: B1
# METHOD DESCRIPTION: aptazyme ON/OFF ratio, guanine; higher = stronger switching; co-transcriptional cleavage with and without guanine
READOUT LABEL: aptazyme ON/OFF ratio

variant_string="U8G G9A U10C U11C C13U" readout_label="aptazyme ON/OFF ratio" data_value=1.03
variant_string="U7C U8G G9A U10G U11C C12G C13U" readout_label="aptazyme ON/OFF ratio" data_value=1.19
variant_string="U7C U8G G9A U11C C12A C13G" readout_label="aptazyme ON/OFF ratio" data_value=1.12
variant_string="U8A C12G" readout_label="aptazyme ON/OFF ratio" data_value=1.46
variant_string="U8C G9U U10G U11C C13A" readout_label="aptazyme ON/OFF ratio" data_value=1.24
variant_string="U7G U8A G9C U10G U11C C12G" readout_label="aptazyme ON/OFF ratio" data_value=1.04
variant_string="U7G U8A G9A U11A C12G C13U" readout_label="aptazyme ON/OFF ratio" data_value=1.14
variant_string="U7C U8C G9U U11G C12G C13A" readout_label="aptazyme ON/OFF ratio" data_value=1.09
variant_string="U7A G9U U10C C13G" readout_label="aptazyme ON/OFF ratio" data_value=1.02
variant_string="U7C U8G G9U C12A C13U" readout_label="aptazyme ON/OFF ratio" data_value=1.37
variant_string="G9U U10C U11C C12U C13A" readout_label="aptazyme ON/OFF ratio" data_value=1.11
variant_string="U7A U8C G9U U11A" readout_label="aptazyme ON/OFF ratio" data_value=1.19
variant_string="U8A G9A U10C C13G" readout_label="aptazyme ON/OFF ratio" data_value=1.04
variant_string="U7G G9C U10A U11G C12U C13G" readout_label="aptazyme ON/OFF ratio" data_value=1.2
variant_string="U7G U8C G9A U10G U11C C13G" readout_label="aptazyme ON/OFF ratio" data_value=1.07
variant_string="U7A U8G G9C U10A U11A C12A" readout_label="aptazyme ON/OFF ratio" data_value=1.5
variant_string="U8A G9U C12U" readout_label="aptazyme ON/OFF ratio" data_value=1.46
variant_string="U7C U8C G9A U10G C12U C13A" readout_label="aptazyme ON/OFF ratio" data_value=1.15
variant_string="U7A U8G U10A U11G C12G C13A" readout_label="aptazyme ON/OFF ratio" data_value=1.16
variant_string="U7G U8G G9C U10G U11G C12G C13A" readout_label="aptazyme ON/OFF ratio" data_value=1.06
variant_string="U8A U10A U11C C13G" readout_label="aptazyme ON/OFF ratio" data_value=1.02
variant_string="U7A G9U U10C U11A C12U C13G" readout_label="aptazyme ON/OFF ratio" data_value=1.2
variant_string="U7C U8C G9C U11C C12U C13A" readout_label="aptazyme ON/OFF ratio" data_value=1.05
variant_string="U7A U8C U10A U11G C12G C13U" readout_label="aptazyme ON/OFF ratio" data_value=1.45
variant_string="U7A G9A U10G C12U C13G" readout_label="aptazyme ON/OFF ratio" data_value=1.14
variant_string="U7G U8G G9A U10A U11C C12U C13G" readout_label="aptazyme ON/OFF ratio" data_value=1.17
variant_string="U7G U8C G9U U11G" readout_label="aptazyme ON/OFF ratio" data_value=1.36
variant_string="U7G U8A U11A C13A" readout_label="aptazyme ON/OFF ratio" data_value=1.45
variant_string="U7A G9U U10A U11C C12G C13G" readout_label="aptazyme ON/OFF ratio" data_value=1.06
variant_string="U7G U8A G9U U10G C12U C13A" readout_label="aptazyme ON/OFF ratio" data_value=1.05
variant_string="U7A U8A G9U U10G U11C C12A C13A" readout_label="aptazyme ON/OFF ratio" data_value=1.29
variant_string="U7G U8C U10C U11G C13A" readout_label="aptazyme ON/OFF ratio" data_value=1.23
variant_string="U7C U8A U10C U11G C12A C13U" readout_label="aptazyme ON/OFF ratio" data_value=1.14
variant_string="U8A G9A U10A U11A C12A C13U" readout_label="aptazyme ON/OFF ratio" data_value=1.27
variant_string="U7G U8G G9U U10A U11G C13U" readout_label="aptazyme ON/OFF ratio" data_value=1.12
variant_string="U10A C13A" readout_label="aptazyme ON/OFF ratio" data_value=1.11
variant_string="U8G G9U U10C U11C C12A" readout_label="aptazyme ON/OFF ratio" data_value=1.04
variant_string="U7A U8A U10G U11G C12G C13G" readout_label="aptazyme ON/OFF ratio" data_value=1.09
variant_string="U8C G9A U10A U11C C12G C13G" readout_label="aptazyme ON/OFF ratio" data_value=1.35
variant_string="U7A U8G G9C U10C U11A C12A C13U" readout_label="aptazyme ON/OFF ratio" data_value=1.18
variant_string="U7G U11C" readout_label="aptazyme ON/OFF ratio" data_value=1.11
variant_string="U7A U8C G9A U10C U11G C12G C13A" readout_label="aptazyme ON/OFF ratio" data_value=1.23
variant_string="U7G U8C G9U U10A U11A C12A C13G" readout_label="aptazyme ON/OFF ratio" data_value=1.11
variant_string="U8G U10C U11G C12U C13G" readout_label="aptazyme ON/OFF ratio" data_value=1.15
variant_string="U7G U8G G9U U10C C12U C13G" readout_label="aptazyme ON/OFF ratio" data_value=1.36
variant_string="U8C G9C U10G U11A" readout_label="aptazyme ON/OFF ratio" data_value=1.1
variant_string="U7A U8C G9U C12U C13U" readout_label="aptazyme ON/OFF ratio" data_value=1.39
variant_string="U7G U8A G9A U10G U11G C12U C13A" readout_label="aptazyme ON/OFF ratio" data_value=1.4
variant_string="U8A G9A C12U C13G" readout_label="aptazyme ON/OFF ratio" data_value=1.17
variant_string="U7C G9A U10G U11A C12G C13A" readout_label="aptazyme ON/OFF ratio" data_value=1.15
variant_string="U7A U8G G9A U11C C13U" readout_label="aptazyme ON/OFF ratio" data_value=1.2
variant_string="U7A U8A G9U U10G U11A C13G" readout_label="aptazyme ON/OFF ratio" data_value=1.04
variant_string="U7C G9U C12G C13G" readout_label="aptazyme ON/OFF ratio" data_value=1.1
